- Test method notes: Average blood levels after oral administration to dogs (Demonstration 6)
- Type: in vivo
- Test conditions: dog, 1 hour, 5 mg/kg
Assay readout: concentration at 1 h (ng/mL)

> print(dat)
                                   compound         assay.readout  result.units  observed
1  O=C1CC(OC/C=C2\O[C@@H]3CC(=O)N3[C@H]2C(=O)O)N1 (some centres unmarked) [Example 27]  concentration at 1 h         ng/mL      4780
2  O=C(O)[C@H]1/C(=C/CO)O[C@@H]2CC(=O)N21 [sodium clavulanate, reference compound]  concentration at 1 h         ng/mL      2910
